These measurements were taken from the supplement of paper PMC12764529.

# experimentNotes: folding stability dG unfold (combined trypsin and chymotrypsin); higher = more stable
Examples of sequences with documented folding stability dG unfold follow.
Report as a plain number; the unit kcal/mol is understood.

[
  {
    "inputSequence": "SAGPWITIPFKVKSLEEARNIIREIAQTFGLPMKVEDIQVTEDQLEKNREPGDPIRITVRYPNGREIEISAG [r5_503_TrROS]",
    "endpointName": "folding stability dG unfold",
    "unitTag": "kcal/mol",
    "valueObserved": 1.64
  },
  {
    "inputSequence": "SAGGSAMETIELKLEDGSTLTIERDPENPNTLTITFEDGRKITVTADSAEEALKKALELAKEGKLPSAGGSA [r15_38_TrROS_Hall]",
    "endpointName": "folding stability dG unfold",
    "unitTag": "kcal/mol",
    "valueObserved": 4.6
  }
]

Q. Dear colleague, I am looking for the recorded folding stability dG unfold of the following sequence: SAGGSAGGSAGSMTLSTSTSTTPTSLTTTTTTTTYDPTTGTTTTTSTTTTTALPAAPPSSTASAGGSAGGSA [r18_16_JUSTAS]
A. 1.37

Q. Do the same for SAGQPGKPIRKYTFDLPDDDKITVEVYMYPDGNMMIKIEDNNGKERNIMIPANDLQNMPIEDLVKWLRSAGG [r19_47_TrROS] please
A. 3.33
